Just for reference, FireProtDB (doi:10.1093/protein/gzw068) is where these values come from.

For each of the variants below, state its Tm.
B1: S55P, Q93D82 (parent)
chain: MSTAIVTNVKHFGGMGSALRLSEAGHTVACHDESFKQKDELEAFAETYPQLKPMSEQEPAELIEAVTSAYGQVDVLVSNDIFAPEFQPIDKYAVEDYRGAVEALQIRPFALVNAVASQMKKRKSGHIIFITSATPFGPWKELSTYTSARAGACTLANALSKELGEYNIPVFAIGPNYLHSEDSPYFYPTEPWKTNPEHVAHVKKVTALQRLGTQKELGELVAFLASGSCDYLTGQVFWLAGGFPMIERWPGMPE

- Variants of: B1
- PROTOCOL_CONDITIONS: Rhizobium radiobacter; pH 7.7; Thermal; CD; Phosphate 5mM; structure 1PWX; whole UniProt chain shown
Supply the numeric figure in °C, leaving out any unit text.

Please look at this variant and report its Tm: S55P 65

Please look at this variant and report its Tm: E33P 64.5

Please look at this variant and report its Tm: G99R 55.5

Please look at this variant and report its Tm: E42Q 64

Please look at this variant and report its Tm: T27L 65

Please look at this variant and report its Tm: N195V 59

Please look at this variant and report its Tm: T27V 64.5

Please look at this variant and report its Tm: K193L 65

Please look at this variant and report its Tm: V75I 65

Please look at this variant and report its Tm: S143V 59.5

Please look at this variant and report its Tm: E42M 66.5

Please look at this variant and report its Tm: A93N 69

Please look at this variant and report its Tm: S160A 64.5

Please look at this variant and report its Tm: T47S 64.5

Please look at this variant and report its Tm: F82W 59

Please look at this variant and report its Tm: E190T 66.5

Please look at this variant and report its Tm: Q87L 62.5

Please look at this variant and report its Tm: A93K 70.5

Please look at this variant and report its Tm: C153V 50.5

Please look at this variant and report its Tm: R98L 65

Please look at this variant and report its Tm: T67Q 63.5

Please look at this variant and report its Tm: D80E 60
